- ASSAY_METHOD_TEXT: Cytotoxicity against human HL-7702 cells assessed as reduction in cell viability after 72 hrs by MTT assay
- Assay type: toxicity, cell-based, L02
Hi there, I'd appreciate the recorded log10 IC50 at 72 h for every entry that follows.
Give log10 of IC50 at 72 h, with IC50 at 72 h taken in µM.

Q: Form field: reported log10 IC50 at 72 h of "CO[C@@]12C=C3C(=O)c4c(O)cc5c(c4O[C@@]34[C@@H]1C(C)(C)O[C@@]4(CC=C(C)C)C2=O)C=CC(C)(C)O5"
Ans: 0.93

Q: Same read-out for "CC(C)=CCC1(CC=C(C)C)C(=O)C(O)=C(O)c2oc3c4c(cc(O)c3c(=O)c21)OC(C)(C)C=C4" ?
Ans: 0.81

Q: Same read-out for "CO[C@]12C=C3C(=O)c4c(O)cc(O)c(CC=C(C)C)c4O[C@]34C(C1)C(C)(C)O[C@]4(CC=C(C)C)C2=O" ?
Ans: 0.40

Q: Same read-out for "CC(=O)O[C@H]1C(=O)[C@@]2(C)[C@H]([C@H](OC(=O)c3ccccc3)[C@]3(O)C[C@H](OC(=O)[C@H](O)[C@@H](NC(=O)c4ccccc4)c4ccccc4)C(C)=C1C3(C)C)[C@]1(OC(C)=O)CO[C@@H]1C[C@@H]2O" ?
Ans: -1.22

Q: Same read-out for "CO[C@]12C=C3C(=O)c4c(O)c(CC=C(C)C)c(O)c(CC=C(C)C)c4O[C@]34C(C1)C(C)(C)O[C@]4(CC=C(C)C)C2=O" ?
Ans: 0.49

Taken from ChEMBL document CHEMBL3861964.
